# GI50 values compiled below
System: MDA-MB-231
test.summary: NCI tumour cell line growth inhibition, 48 h
Calls of active or inactive are those of the source. No stated cut-off is given here; in the data, active = GI50 up to about 1.1 µM and inactive = higher.

- compound: "C=C1C(=O)O[C@H]2C1C[C@@H](O)[C@@]1(C)OC1CC[C@@]1(C)O[C@H]21 (stereo not given in full)"
  GI50: "19.1 µM (inactive)"
- compound: "Nc1nc(=O)c(/N=N/c2ccccc2)c(C(=O)O)[nH]1"
  GI50: "> 100 µM (inactive)"
- compound: "CCOP(=O)(OCC)C1CC(O)C(=O)N1 (stereo not given)"
  GI50: "> 100 µM (inactive)"
- compound: "CCOC(=O)C(NCc1cccc(C(F)(F)F)c1)(NC(=O)c1ccccc1)C(F)(F)F (stereo not given)"
  GI50: "11.5 µM (inactive)"
- compound: "CCCNCC(O)CNc1ccc(NCC(O)CNCCC)c2c1C(=O)c1ccccc1C2=O (stereo not given)"
  GI50: "2.98 µM (inactive)"

Cited source: ChEMBL document CHEMBL1201862
